Overview of recorded TGI for various compounds
# Tested on: A549 NSCLC
# ASSAY_COMMENT: NCI tumour cell line growth inhibition, 48 h
REPORTED_ENDPOINT: TGI

| COMPOUND | VAL |
| --- | --- |
| N#CCCN(CCC#N)c1ccc(C(N=Nc2ccccc2)=Nc2ccc(F)cc2)cc1 | > 100 µM |
| Oc1ccccc1/C=N/N1C(=S)N(C23CC4CC(CC(C4)C2)C3)C(=Nc2ccccc2)C1=Nc1ccccc1 | > 100 µM |
| CNC(=O)c1cncc(/C=C/c2ccccc2Cl)c1 | > 25 µM |
| CC[C@]12C=CCN3CCC4(c5cc([C@@]6(C(=O)OC)CC7CN(CCc8c6[nH]c6ccccc86)CC6CCCCC67)c(OC)cc5N(C)C4[C@](O)(C(=O)OC)C1OC(C)=O)[C@@H]32 (some centres undefined) | 12.6 µM |

###

Recorded TGI values for a group of molecules are listed next.
# Test system: SK-OV-3 ovarian
# ASSAY_COMMENT: NCI tumour cell line growth inhibition, 48 h

| MOLECULE | TGI |
| --- | --- |
| COC(=O)CC[C@]12C[C@]13CC[C@]1(C)C4C(C)C[C@]5(CC(C)C(=O)O5)OC4CC1(C)C3CCC2C(C)(C)O (stereo not given in full) | > 100 µM |
| CC1=NOC(=O)/C1=C/c1ccc2c(c1)OCO2 | > 100 µM |
| O=C[C@@H](CO)O[C@H](C=O)n1cnc2c(=O)[nH]cnc21 | 1630 µM |
| Cc1c(C(=O)NNc2ccccc2)n2c(=S)[nH]nc2c2ccccc12 | > 100 µM |
| CNC(=O)CN(CC(=O)O)C(=O)NC | > 100 µM |

###

# Tested on: MOLT-4 leukemia
# ASSAY_COMMENT: NCI tumour cell line growth inhibition, 48 h; in the data active = GI50 below about 0.43 µM; inactive = the rest
Outcomes: active, inactive

| COMPOUND | CLASS_ASSIGNMENT |
| --- | --- |
| CS(=O)(=O)N(c1cc(-c2ccc3ncnc(Nc4ccc(F)c(Cl)c4)c3c2)cnc1Cl)S(C)(=O)=O | inactive |
| CC1SC(c2ccc(Cl)cc2Cl)N(NC(=O)C(O)c2ccccc2)C1=O (centres undefined) | inactive |
| COc1c(N2CCN(CN3C(=O)C(=Nc4ccc(S(=O)(=O)Nc5ncccn5)cc4)c4cc(Cl)ccc43)C(C)C2)c(F)cc2c(=O)c(C(=O)O)cn(C3CC3)c12 (centres undefined) | inactive |
| C[CH2][Sn]([CH2]C)([O]C(=O)c1ccc(F)cc1)[O]C(=O)c1ccc(F)cc1 | inactive |
| CCN(CC)CCCCNc1c2ccc(Cl)cc2nc2ccc(OC)cc12 | active |
| N#CC1=C(N)NC(=O)NC12Nc1ccccc1N2 | inactive |
| COc1ccc(S(=O)(=O)N(C(C)=O)c2ccccc2/C=C/c2cc[n+]([O-])cc2)cc1 | inactive |
| Cc1ccc(C(=O)NC2CC2)cc1-c1ccc2[nH]ncc2c1 | inactive |
| O=c1[nH]c(=O)n(C2CC(O)C(CO)O2)cc1C(F)(F)F (centres undefined) | inactive |

###

# Tested on: CCRF-CEM leukemia
# ASSAY_COMMENT: NCI tumour cell line growth inhibition, 48 h
REPORTED_ENDPOINT: TGI (µM)

| COMPOUND | QUALIFIER | VAL |
| --- | --- | --- |
| COc1cc(/C=N/N=C(\N)NO)c([N+](=O)[O-])cc1OC | > | 100 |
| O=C1NC(c2ccccc2)C2(C(=O)O)CN(C3CC3)c3cc(N4CCNCC4)c(F)cc3C2N1 (stereo not given) | > | 100 |
| COc1ccc2[nH]c(C(=O)OCc3ccc4c(Cl)cc(Cl)c(O)c4n3)cc2c1 | = | 2.08 |
| CCN(Cc1c(F)cccc1Cl)c1ccc(CO)c(Cl)c1 | = | 39 |
| O=[N+]([O-])c1ccc(-c2csc(=[N+]3CCCCC3)s2)cc1 | > | 100 |

###

# Tested on: OVCAR-3 ovarian
# ASSAY_COMMENT: NCI tumour cell line growth inhibition, 48 h

| COMPOUND | QUALIFIER | TGI [µM] |
| --- | --- | --- |
| Nc1cccc2c1C(=O)c1cccc(NC(=O)c3ccccc3)c1C2=O | = | 1.47 |
| CCOC(=O)[C@@H](Cc1ccc(CCl)cc1)NC(C)=O | > | 100 |
| CCC(CO)Nc1nc2c(c(=O)n(C)c(=O)n2C)n1CCO (stereo unspecified) | > | 100 |
| Cc1cccc2c1CC(Cc1ccccc1C(=O)O)C2=O (stereo unspecified) | > | 100 |
| CCCCn1c(=O)c(/C=C/C(=O)/C=C/c2cc3ccccc3n(CCCC)c2=O)cc2ccccc21 | = | 2.47 |
| COc1ccc2[nH]c(C(=O)OCc3ccc4c(Cl)cc(Cl)c(O)c4n3)cc2c1 | = | 1.83 |
| CO[C@@]1(c2ccccc2)O[C@H]2OCCC2[C@H]1c1ccc(Cl)cc1 (stereo partly specified) | = | 49.7 |
| O=P(O)(O)OCC1OC(n2cnc3c(NCc4ccccc4)ncnc32)C(O)C1O (stereo unspecified) | = | 2.16 |
| CN(C)CCCNc1nc2ccccc2c2[nH]c3ccccc3c12 | = | 2.23 |
| CSc1ncc2c(n1)-c1ccccc1OC2NC1CC1 (stereo unspecified) | > | 100 |
| CN(C)/N=N/c1nc2c(c(=O)n(C)c(=O)n2C)n1CC1CO1 (stereo unspecified) | = | 31.4 |

###

# Test system: K-562 leukemia
# ASSAY_COMMENT: NCI tumour cell line growth inhibition, 48 h; in the data active means GI50 below about 0.43 µM; inactive means the rest
Classes used: active, inactive

| COMPOUND | TARGET | CLASS_ASSIGNMENT |
| --- | --- | --- |
| CC/C(=C/c1ccc(OC)cc1OC)[N+](=O)[O-] | K-562 leukemia | inactive |
| O=C(Nc1cccc(C(F)(F)F)c1)Oc1ccc(Cl)c2cccnc12 | K-562 leukemia | inactive |
| CCn1c2ccccc2c2cc(C(=O)c3ccc(C)c4ccccc34)ccc21 | K-562 leukemia | active |
| Cc1cc(O)c(-c2ccc([C@@H](C)CN(C)C)cc2)c2c1[nH]c(=O)c1sccc12 | K-562 leukemia | inactive |
| C[N+](C)=c1ccc2nc3c(cc(NCCCNc4cc5oc6cc(=[N+](C)C)ccc-6nc5c5ccccc45)c4ccccc43)oc-2c1 | K-562 leukemia | inactive |
| COc1ccc(S(=O)(=O)N(C(C)=O)c2ccccc2/C=C/c2cc[n+]([O-])cc2)cc1 | K-562 leukemia | active |
| CC(=O)[O-].N.N.N.N.[Co+3].[O-][Cl+3]([O-])([O-])[O-].[OH3+] | K-562 leukemia | inactive |
| CCC[CH2][Sn]1([CH2]CCC)[S]CC[N]1S(=O)(=O)c1ccc(C)cc1 | K-562 leukemia | active |
| C=C1CCC2C3(C)COC(c4ccccc4Cl)OC3CCC2(C)C1/C=C/C1=CCOC1=O (centres undefined) | K-562 leukemia | inactive |

###

# Tested on: MDA-MB-231 breast
# ASSAY_COMMENT: NCI tumour cell line growth inhibition, 48 h; in the data active means GI50 below about 0.43 µM; inactive means the rest
Outcomes: active, inactive

| COMPOUND | CLASS_ASSIGNMENT |
| --- | --- |
| CC/C(=C/c1ccc(OC)cc1OC)[N+](=O)[O-] | inactive |
| N#Cc1cc(S(=O)(=O)Nc2nc3ccccc3o2)c(SCc2ccccc2)cc1Cl | inactive |
| CNC(=O)c1cncc(/C=C/c2ccccc2Cl)c1 | inactive |
| CCN(Cc1c(F)cccc1Cl)c1ccc(CO)c(Cl)c1 | inactive |
| CCOC(=O)C1=C(C)NC(c2ccco2)=C(C#N)C1c1cccc([N+](=O)[O-])c1 (centres undefined) | active |
| C=C(C)[C@@H]1CC[C@]2(C(=O)NS(=O)(=O)c3ccccc3)CC[C@]3(C)[C@H](CC[C@@H]4[C@@]5(C)CC[C@H](OC(=O)NS(=O)(=O)c6ccccc6)C(C)(C)[C@@H]5CC[C@]43C)[C@@H]12 | inactive |
| Nc1cccc2c1C(=O)c1cccc(NC(=O)c3ccccc3)c1C2=O | inactive |
| O=c1[nH]c(=O)n(C2CC(O)C(CO)O2)cc1C(F)(F)F (centres undefined) | inactive |
| COc1cc(CNc2oc(-c3ccccc3)c(-c3ccccc3)c2C#N)cc(CN2CCN(C)CC2)c1O | inactive |

###

List of TGI values.
# Test system: U251 CNS
# ASSAY_COMMENT: NCI tumour cell line growth inhibition, 48 h

| COMPOUND | TGI |
| --- | --- |
| COc1ccc(-c2cc(=O)c3c(O)c(OC)c(OC)c(OC)c3o2)cc1 | > 100 µM |
| Cc1cc(O)c(-c2ccc([C@@H](C)CN(C)C)cc2)c2c1[nH]c(=O)c1sccc12 | 17.4 µM |
| COC(=O)[C@H](Cc1cn(C)cn1)NC(=O)[C@H](Cc1ccccc1)NC(=O)Nc1cc(C(F)(F)F)cc(C(F)(F)F)c1 | 24.6 µM |
| CCn1c2ccccc2c2cc(C(=O)c3ccc(C)c4ccccc34)ccc21 | 1.52 µM |
| COc1cc2nccc(Oc3ccc(NC(=O)c4cn(C(C)C)c(=O)n(-c5ccc(F)cc5)c4=O)cc3F)c2cc1OC | > 100 µM |
| CCC[CH2][Sn]1([CH2]CCC)[S]CC[N]1S(=O)(=O)c1ccc(C)cc1 | 2.1 µM |
| O=C1C=CC(=O)c2c(O)c(N3CCC[C@@H]3CO)c(Cl)c(O)c21 | 3.46 µM |
| COc1cc(NCCCCCN=C(N)NC(N)=NC(C)C)c2ncccc2c1 | 11.8 µM |
| C=C1C[C@@H]2C[C@@H](C)CC(O)[C@]2(CCCN)C1O (stereo partly specified) | > 100 µM |
| COc1ccc2c(c1)CCc1c-2n[nH]c1-c1[nH]nc2c1CCc1cc(OC)ccc1-2 | > 100 µM |
| COc1ccc(-c2cc3cc(Cl)cc(Cl)c3oc2=O)cc1OC | > 100 µM |
| COc1cc2cnc3c4cc(OCc5ccccc5)ccc4ccc3c2cc1OC | > 100 µM |
| CC1(C)OCC(C2OC(C)(C)OC2[C@H]2O[C@@]3(O)[C@H]4[C@H](C=CC[C@@H]42)[C@@H](OCc2ccccc2)[C@H](OCc2ccccc2)[C@H]3OCc2ccccc2)O1 (stereo partly specified) | > 100 µM |
| Cc1ccc(C)c(COCCOCn2cc(N3CCOCC3)c(=O)[nH]c2=O)c1 | > 100 µM |
| O/N=C/c1ccc(O)c(O)c1 | > 100 µM |
| CC(=O)/C(=N\Nc1ccc(Cl)cc1)C(C)=Nc1ccc(C)cc1 | > 100 µM |
| CC(C)=CCc1c(O)cc2oc(-c3ccc(O)cc3O)cc(=O)c2c1O | > 100 µM |
| O=C1CSC(c2c[nH]c3ccccc23)N1c1ccc(Cl)cc1Cl (stereo unspecified) | > 100 µM |
| CC(=O)Oc1ccn2nc(C)c(Br)c2c1 | > 100 µM |
| CCOC(=O)N1CCN(c2c(N)nc(C)[nH]c2=O)CC1 | > 100 µM |
| CCC(CO)Nc1nc2c(c(=O)n(C)c(=O)n2C)n1CCO (stereo unspecified) | > 100 µM |

The measurements presented in this section are drawn from PubChem BioAssay (NCI).
